Just for reference, the supplement of paper PMC11219838 is where these values come from.

Below, each entry is listed alongside its reported proportion of mobile M. hapla J2.
Test system: Meloidogyne hapla J2
method notes: proportion of mobile M. hapla J2 relative to DMSO control (fraction of DMSO control); higher = more viable, less nematicidal, active = 0.7 or less
experimental context: 60 µM; 5 days; temperature: 20 °C

{"columns": ["entry smiles", "proportion of mobile M. hapla J2"],
 "data": [
  ["Cc1cc(Br)ccc1OCc1nc(-c2ccccn2)no1", 0.973],
  ["COC(=O)c1ccc(CSc2nnc(-c3ccncc3)o2)cc1", 0.999],
  ["CCOc1ccccc1-c1nnc(SCC(=O)Nc2nc(C)cs2)o1", 0.993],
  ["Fc1ccc(-c2nc(-c3ccc4c(c3)OCO4)no2)cc1", 1.02],
  ["Cc1ccc(-c2noc(COc3ccccc3C)n2)cc1", 1.01],
  ["Brc1ccc(-c2nc(-c3cccnc3)no2)cc1", 0.984],
  ["Fc1ccccc1-c1nc(-c2ccccc2)no1", 0.991]
]}

====

System: Meloidogyne hapla J2
method notes: proportion of mobile M. hapla J2 relative to DMSO control (fraction of DMSO control); higher = more viable, less nematicidal, active = 0.7 or less
experimental context: 60 µM; 5 days; temperature: 20 °C
In this section we review reported proportion of mobile M. hapla J2 values for a set of compounds.

{"columns": ["entry smiles", "proportion of mobile M. hapla J2"],
 "data": [
  ["COc1ccc(-c2noc(COc3ccccc3)n2)cc1", "1.02 (inactive)"],
  ["CCOc1ccc(-c2nc(-c3ccc(Cl)cc3)no2)cc1", "1 (inactive)"],
  ["O=C(CSc1nnc(-c2ccc(Br)cc2)o1)Nc1nccs1", "1.01 (inactive)"],
  ["CCNC(=O)c1ccccc1-c1nc(-c2ccc(F)cc2)no1", "0.998 (inactive)"],
  ["O=C(CSc1nnc(-c2ccccc2)o1)OCc1ccccc1", "0.999 (inactive)"],
  ["Cc1ccc(NC(=O)CSc2nnc(-c3ccccc3)o2)cc1F", "1.02 (inactive)"],
  ["Fc1cccc(Cl)c1CSc1nnc(-c2ccccc2)o1", "1 (inactive)"],
  ["COc1ccccc1-c1nnc(SCC(=O)Nc2ccccc2Cl)o1", "0.973 (inactive)"],
  ["Cc1cccc(OCc2nc(-c3ccc(-n4cccc4)cc3)no2)c1", "1.01 (inactive)"],
  ["Ic1ccc(-c2nc(-c3cccnc3)no2)cc1", "1.02 (inactive)"],
  ["CCCc1ccc(-c2ccc(-c3nc(-c4ccccn4)no3)cc2)cc1", "0.978 (inactive)"],
  ["COc1ccc(-c2nnc(SCC(=O)Nc3ccc(Br)c(C)c3)o2)cc1", "0.999 (inactive)"]
]}

====

Listed here: items and their measured proportion of mobile M. hapla J2.
Test system: Meloidogyne hapla J2
method notes: proportion of mobile M. hapla J2 relative to DMSO control (fraction of DMSO control); higher = more viable, less nematicidal, active = 0.7 or less
experimental context: 60 µM; 5 days; temperature: 20 °C
observed property: proportion of mobile M. hapla J2

{"columns": ["entry smiles", "observed property", "result number"],
 "data": [
  ["COc1ccccc1-c1noc(-c2ccccc2F)n1", "proportion of mobile M. hapla J2", 0.91],
  ["Cc1cc(C)c(C)c(OCc2nc(-c3ccccc3)no2)c1", "proportion of mobile M. hapla J2", 0.95],
  ["CCCCC(=O)Nc1ccccc1-c1nc(-c2cccnc2)no1", "proportion of mobile M. hapla J2", 1.01],
  ["O=C(CSc1nnc(-c2ccccc2)o1)Nc1ccc2ccccc2c1", "proportion of mobile M. hapla J2", 1.01],
  ["Ic1ccc(OCc2nc(-c3ccncc3)no2)cc1", "proportion of mobile M. hapla J2", 1.01],
  ["Fc1ccc(-c2noc(COc3cccc(Cl)c3)n2)cc1", "proportion of mobile M. hapla J2", 0.908],
  ["COc1ccccc1-c1nc(-c2ccc(C)cc2)no1", "proportion of mobile M. hapla J2", 1.01],
  ["COc1nc(-c2ccccc2)ccc1-c1noc(-c2ccccc2C)n1", "proportion of mobile M. hapla J2", 0.909]
]}

====

Recorded proportion of mobile M. hapla J2 values for a group of compounds are listed next.
System: Meloidogyne hapla J2
method notes: proportion of mobile M. hapla J2 relative to DMSO control (fraction of DMSO control); higher = more viable, less nematicidal, active = 0.7 or less
experimental context: 60 µM; 5 days; temperature: 20 °C

{"columns": ["entry smiles", "subject of test", "proportion of mobile M. hapla J2"],
 "data": [
  ["CCOC(=O)c1ccc(OCc2nc(-c3cccs3)no2)cc1", "Meloidogyne hapla J2", 1.1],
  ["O=C(CSc1nnc(-c2ccccc2)o1)Nc1ccc(F)cc1F", "Meloidogyne hapla J2", 1.03],
  ["COc1cccc(-c2noc(COc3ccccc3Cl)n2)c1", "Meloidogyne hapla J2", 0.998],
  ["COc1ccc(-c2noc(CSc3ccc(C)cc3)n2)cc1", "Meloidogyne hapla J2", 1.03],
  ["O=C(CSc1nnc(-c2ccc(Br)cc2)o1)NC1CCCC1", "Meloidogyne hapla J2", 0.944],
  ["Cc1ccc(OCc2nc(-c3ccc(Cl)cc3)no2)c(C)c1", "Meloidogyne hapla J2", 0.997],
  ["Clc1ccc(-c2noc(-c3ccccc3Br)n2)cc1", "Meloidogyne hapla J2", 0.995],
  ["CCOc1ccc(-c2nc(-c3ccc(C)cc3)no2)cc1", "Meloidogyne hapla J2", 0.966],
  ["CN(C)C(=O)c1ccccc1-c1nc(-c2ccccc2Cl)no1", "Meloidogyne hapla J2", 0.882],
  ["CCOc1ccccc1-c1nnc(SCC(=O)Nc2ccccc2)o1", "Meloidogyne hapla J2", 0.907],
  ["Cc1cc(Br)ccc1OCc1nc(-c2ccncc2)no1", "Meloidogyne hapla J2", 1.01],
  ["Brc1ccc(-c2noc(-c3ccco3)n2)cc1", "Meloidogyne hapla J2", 1.01],
  ["Clc1cccc(OCc2nc(-c3ccncc3)no2)c1", "Meloidogyne hapla J2", 0.85],
  ["COc1ccc(C(=O)CSc2nnc(-c3cccc4ccccc34)o2)cc1", "Meloidogyne hapla J2", 0.929],
  ["Cc1ccccc1-c1nnc(SCc2ccccc2)o1", "Meloidogyne hapla J2", 0.986]
]}

====

Test system: Meloidogyne hapla J2
method notes: proportion of mobile M. hapla J2 relative to DMSO control (fraction of DMSO control); higher = more viable, less nematicidal, active = 0.7 or less
experimental context: 60 µM; 5 days; temperature: 20 °C
Please use t whenever proportion of mobile M. hapla J2 is not below 1, and f whenever it is.

{"columns": ["entry smiles", "group"],
 "data": [
  ["COc1ccc(-c2nnc(SCc3ccc(C#N)cc3)o2)cc1", "f"],
  ["CCOc1ccccc1-c1nnc(SCc2ccc(C(=O)OC)o2)o1", "f"],
  ["CCOc1nc(-c2ccc(C)cc2)ccc1-c1noc(-c2ccc(F)cc2)n1", "f"],
  ["CCCCC(=O)Nc1ccccc1-c1nc(-c2ccccn2)no1", "t"],
  ["N#Cc1ccccc1NC(=O)CSc1nnc(-c2ccccc2)o1", "f"],
  ["COc1nc(C)ccc1-c1noc(-c2ccccc2C)n1", "f"],
  ["Cc1ccccc1OCc1nc(-c2ccc(F)cc2)no1", "f"],
  ["Clc1cc(Cl)c(OCc2nc(-c3ccncc3)no2)cc1Cl", "f"],
  ["Cc1cccc(OCc2nc(-c3ccccc3Cl)no2)c1", "t"],
  ["COc1nc(-c2ccc(C)cc2)ccc1-c1noc(-c2cccc(C)c2)n1", "f"],
  ["Fc1cccc(-c2nc(-c3cccnc3)no2)c1", "t"],
  ["Clc1cccc(-c2nc(-c3ccncc3)no2)c1", "f"]
]}

====

Tested on: Meloidogyne hapla J2
method notes: proportion of mobile M. hapla J2 relative to DMSO control (fraction of DMSO control); higher = more viable, less nematicidal, active = 0.7 or less
experimental context: 60 µM; 5 days; temperature: 20 °C
observed property: proportion of mobile M. hapla J2

{"columns": ["compound", "result number"],
 "data": [
  ["Cc1cc(Cl)ccc1NC(=O)CSc1nnc(-c2ccncc2)o1", 0.974],
  ["O=C(Nc1ccccc1-c1nc(-c2cccnc2)no1)c1ccc(Cl)cc1", 0.98],
  ["CCN(CC)C(=O)CSc1nnc(-c2cccc(Cl)c2)o1", 0.922],
  ["Cc1cccc(NC(=O)CSc2nnc(-c3ccncc3)o2)c1C", 1.02],
  ["Clc1ccccc1OCc1nc(-c2ccccn2)no1", 1],
  ["COc1ccc(CCC(=O)Nc2ccc(-c3noc(-c4ccc(F)cc4)n3)cc2)cc1", 0.746],
  ["N#Cc1cccc(CSc2nnc(-c3ccncc3)o2)c1", 0.745],
  ["Cc1cccc(-c2noc(-c3ccccc3Br)n2)c1", 0.99],
  ["Cc1cccc(OC(C)c2nc(-c3ccncc3)no2)c1 (configuration not stated)", 0.988],
  ["COc1ccc(-c2nnc(SCC(=O)Nc3ccc(Br)cc3C)o2)cc1", 0.929],
  ["COc1ccc(Cl)cc1-c1noc(-c2ccccc2C)n1", 0.93],
  ["COc1ccc(-c2noc(COc3ccccc3C)n2)cc1", 1.03],
  ["O=C(CSc1nnc(-c2cccc(Br)c2)o1)Nc1ccccn1", 0.951],
  ["CCCCSc1nnc(-c2ccc(Br)cc2)o1", 1],
  ["COc1ccc(Cl)cc1-c1nc(-c2ccccc2C)no1", 0.852],
  ["CNC(=O)c1ccccc1-c1nc(-c2ccccc2Cl)no1", 1],
  ["O=C(CSc1nnc(-c2cccc(Cl)c2)o1)Nc1ccccc1", 0.813],
  ["Cc1cccc(-c2noc(-c3ccccc3F)n2)c1", 0.874],
  ["COc1ccc(-c2nnc(SCC(=O)OCc3ccccc3)o2)cc1", 0.953],
  ["O=C(CSc1nnc(-c2ccco2)o1)Nc1cccc(C(F)(F)F)c1", 0.879],
  ["O=C(CSc1nnc(-c2ccco2)o1)Nc1ccc(Br)cc1", 1.05],
  ["COc1ccccc1OCc1nc(-c2ccc(Br)cc2)no1", 1.04]
]}
